Reference source: patent EP0540143B1

# System: HIV virus
# testDescription: Test A (XTT), MT4 cells infected with HIV
# Assay type: cell-based
# conditionContext: Human immunodeficiency virus 1, MT4, Test A; 10 µg/ml
# Protocol: Tests A, B, C, and D (XTT) MT4 cells in a medium of RPMI 1640, 5% FCS, penicillin/streptomycin are adjusted to 2x10^5 cells/ml and seeded into microplates (96 wells/plate) 100 µl cell suspension/well giving 2x10^4 cells/well. The compound to be tested is made into a 10 mg/ml mixture in DMSO and stored at -20°C. The compound in DMSO is diluted with medium containing 10% DMSO in a 10-fold dilution series to give 1 mg/ml, 10 mg/ml, and 100 mg/ml solutions. […]
Property: inhibition at 10 µg/mL; scope: individual molecules
parameterMeasured: inhibition at 10 µg/mL (%)

[[record]]
molsmiles = "S=C(NCCc1ccccc1)Nc1cc[nH]n1"
parametermeasured = "inhibition at 10 µg/mL"
readoutvalue = 0

[[record]]
molsmiles = "Cc1nnc(NC(=S)NCCc2ccccc2)s1"
parametermeasured = "inhibition at 10 µg/mL"
readoutvalue = 38

[[record]]
molsmiles = "S=C(NCCc1ccccc1)Nc1ccccc1"
parametermeasured = "inhibition at 10 µg/mL"
readoutvalue = 25

[[record]]
molsmiles = "S=C(NCCc1ccccc1)Nc1ncco1"
parametermeasured = "inhibition at 10 µg/mL"
readoutvalue = 0

[[record]]
molsmiles = "S=C(NCCc1ccccc1)NCc1ccco1"
parametermeasured = "inhibition at 10 µg/mL"
readoutvalue = 7

[[record]]
molsmiles = "CCc1nnc(NC(=S)NCCc2ccccc2)s1"
parametermeasured = "inhibition at 10 µg/mL"
readoutvalue = 7

[[record]]
molsmiles = "CCOc1ccccc1CCNC(=S)Nc1nccs1"
parametermeasured = "inhibition at 10 µg/mL"
readoutvalue = 100

[[record]]
molsmiles = "Fc1ccc(NC(=S)NCCc2ccccc2)cc1"
parametermeasured = "inhibition at 10 µg/mL"
readoutvalue = 41

[[record]]
molsmiles = "S=C(NCCc1ccccc1)Nc1ccccc1Cl"
parametermeasured = "inhibition at 10 µg/mL"
readoutvalue = 52

[[record]]
molsmiles = "S=C(NCCc1ccccc1)N1CCOCC1"
parametermeasured = "inhibition at 10 µg/mL"
readoutvalue = 9

[[record]]
molsmiles = "S=C(NCCc1ccccc1)Nc1cnc2ccccc2c1"
parametermeasured = "inhibition at 10 µg/mL"
readoutvalue = 71

[[record]]
molsmiles = "COc1ccc(CCNC(=S)Nc2nccs2)cc1OC"
parametermeasured = "inhibition at 10 µg/mL"
readoutvalue = 54

[[record]]
molsmiles = "S=C(NCCc1ccc(Cl)cc1)Nc1nccs1"
parametermeasured = "inhibition at 10 µg/mL"
readoutvalue = 79

[[record]]
molsmiles = "S=C(NCCc1ccccc1)Nc1nc(-c2ccc(Cl)cc2)cs1"
parametermeasured = "inhibition at 10 µg/mL"
readoutvalue = 0

[[record]]
molsmiles = "S=C(NCCc1ccccc1)Nc1nnc[nH]1"
parametermeasured = "inhibition at 10 µg/mL"
readoutvalue = 27

[[record]]
molsmiles = "S=C(NCCc1ccccc1)Nc1nc(-c2ccc(Br)cc2)cs1"
parametermeasured = "inhibition at 10 µg/mL"
readoutvalue = 0

[[record]]
molsmiles = "S=C(NCCc1ccccc1)Nc1ccccn1"
parametermeasured = "inhibition at 10 µg/mL"
readoutvalue = 2

[[record]]
molsmiles = "NS(=O)(=O)c1ccc(NC(=S)NCCc2ccccc2)cc1"
parametermeasured = "inhibition at 10 µg/mL"
readoutvalue = 22

[[record]]
molsmiles = "S=C(NCCc1ccccc1)Nc1nc(-c2ccncc2)cs1"
parametermeasured = "inhibition at 10 µg/mL"
readoutvalue = 51

[[record]]
molsmiles = "CCCCOC(=O)c1ccc(NC(=S)NCCc2ccccc2)cc1"
parametermeasured = "inhibition at 10 µg/mL"
readoutvalue = 0

[[record]]
molsmiles = "S=C(NCCc1ccccc1)Nc1cnccn1"
parametermeasured = "inhibition at 10 µg/mL"
readoutvalue = 100

[[record]]
molsmiles = "FC(F)(F)c1csc(NC(=S)NCCc2ccccc2)n1"
parametermeasured = "inhibition at 10 µg/mL"
readoutvalue = 24

[[record]]
molsmiles = "S=C(NCCc1ccccc1)Nc1ccc(Cl)cc1"
parametermeasured = "inhibition at 10 µg/mL"
readoutvalue = 67

[[record]]
molsmiles = "N#Cc1csc(NC(=S)NCCc2ccccc2)n1"
parametermeasured = "inhibition at 10 µg/mL"
readoutvalue = 0

[[record]]
molsmiles = "S=C(NCCc1ccccc1)Nc1nc2ccc(Cl)cc2s1"
parametermeasured = "inhibition at 10 µg/mL"
readoutvalue = 63

[[record]]
molsmiles = "S=C(NCCc1ccccc1)Nc1nncs1"
parametermeasured = "inhibition at 10 µg/mL"
readoutvalue = 100

[[record]]
molsmiles = "COC(=O)C(=O)c1csc(NC(=S)NCCc2ccccc2)n1"
parametermeasured = "inhibition at 10 µg/mL"
readoutvalue = 0

[[record]]
molsmiles = "CN1CCN(C(=S)NCCc2ccccc2)CC1"
parametermeasured = "inhibition at 10 µg/mL"
readoutvalue = 0

[[record]]
molsmiles = "CCCCCCCCCCCCCCc1sc(NC(=S)NCCc2ccccc2)nc1-c1ccc(Cl)cc1"
parametermeasured = "inhibition at 10 µg/mL"
readoutvalue = 0

[[record]]
molsmiles = "CCOc1ccc2nc(NC(=S)NCCc3ccccc3)sc2c1"
parametermeasured = "inhibition at 10 µg/mL"
readoutvalue = 5

[[record]]
molsmiles = "Cc1ccnc(NC(=S)NCCc2ccccc2)n1"
parametermeasured = "inhibition at 10 µg/mL"
readoutvalue = 64

[[record]]
molsmiles = "Cc1nc(NC(=S)NCCc2ccccc2)sc1C"
parametermeasured = "inhibition at 10 µg/mL"
readoutvalue = 85

[[record]]
molsmiles = "S=C(NCCc1ccccc1)N1CCCCC1"
parametermeasured = "inhibition at 10 µg/mL"
readoutvalue = 0

[[record]]
molsmiles = "S=C(NCCc1ccccc1)Nc1ncccn1"
parametermeasured = "inhibition at 10 µg/mL"
readoutvalue = 23

[[record]]
molsmiles = "S=C(NCCc1ccccc1)Nc1nc2ccccc2s1"
parametermeasured = "inhibition at 10 µg/mL"
readoutvalue = 100

[[record]]
molsmiles = "Cc1cccc2sc(NC(=S)NCCc3ccccc3)nc12"
parametermeasured = "inhibition at 10 µg/mL"
readoutvalue = 28

[[record]]
molsmiles = "S=C(NCCc1ccccc1)N1CCCc2ccccc21"
parametermeasured = "inhibition at 10 µg/mL"
readoutvalue = 0

[[record]]
molsmiles = "CC(C)(C)c1csc(NC(=S)NCCc2ccccc2)n1"
parametermeasured = "inhibition at 10 µg/mL"
readoutvalue = 9

[[record]]
molsmiles = "S=C(NCCc1ccccc1)Nc1nc2c(Cl)cccc2s1"
parametermeasured = "inhibition at 10 µg/mL"
readoutvalue = 19


---

inhibition at 10 µg/mL reference
# System: HIV(II) virus
# testDescription: Test B (XTT), MT4 cells infected with HIV(II)
# Format: cell-based
# conditionContext: Human immunodeficiency virus 1, MT4, Test B; 10 µg/ml
parameterMeasured: inhibition at 10 µg/mL

[[record]]
molsmiles = "Cc1ccnc(NC(=S)NCCc2ccccc2)n1"
readoutvalue = "27%"

[[record]]
molsmiles = "FC(F)(F)c1csc(NC(=S)NCCc2ccccc2)n1"
readoutvalue = "38%"

[[record]]
molsmiles = "S=C(NCCc1ccccc1)Nc1nc2c(Cl)cccc2s1"
readoutvalue = "100%"

[[record]]
molsmiles = "Cc1nc(NC(=S)NCCc2ccccc2)sc1C"
readoutvalue = "100%"

[[record]]
molsmiles = "N#Cc1csc(NC(=S)NCCc2ccccc2)n1"
readoutvalue = "0%"

[[record]]
molsmiles = "Fc1ccc2nc(NC(=S)NCCc3ccccc3)sc2c1"
readoutvalue = "12%"

[[record]]
molsmiles = "S=C(NCCc1ccccc1)Nc1nncs1"
readoutvalue = "57%"


---

# System: MT4 cells
# testDescription: Test D (XTT), MT4 cells, no virus
# Type: cell-based
# conditionContext: Homo sapiens, 1 µg/ml
Readings of inhibition at 1 µg/mL for the listed molecules
parameterMeasured: inhibition at 1 µg/mL (%)

[[record]]
molsmiles = "Fc1ccc2nc(NC(=S)NCCc3ccccc3)sc2c1"
testedon = "MT4 cells"
quantityunit = "%"
readoutvalue = 5

[[record]]
molsmiles = "S=C(NCCc1ccccc1)Nc1nnc[nH]1"
testedon = "MT4 cells"
quantityunit = "%"
readoutvalue = 33

[[record]]
molsmiles = "S=C(NCCc1ccccc1)Nc1nc2ccccc2s1"
testedon = "MT4 cells"
quantityunit = "%"
readoutvalue = 32

[[record]]
molsmiles = "S=C(NCCc1ccccc1)Nc1nccs1"
testedon = "MT4 cells"
quantityunit = "%"
readoutvalue = 18

[[record]]
molsmiles = "N#Cc1csc(NC(=S)NCCc2ccccc2)n1"
testedon = "MT4 cells"
quantityunit = "%"
readoutvalue = 53

[[record]]
molsmiles = "FC(F)(F)c1csc(NC(=S)NCCc2ccccc2)n1"
testedon = "MT4 cells"
quantityunit = "%"
readoutvalue = 46


---

Property: inhibition at 0.1 µg/mL; scope: individual compounds
# System: HIV-1
# testDescription: Test E (HIV-1 RT), RT activity in supernatant of infected MT-4/H9 cells
# Assay type: cell-based
# conditionContext: Human immunodeficiency virus 1, H9, Test E; 0.1 µg/ml
parameterMeasured: inhibition at 0.1 µg/mL (%)

[[record]]
molsmiles = "S=C(NCCc1ccccc1)Nc1nc2ccccc2s1"
testedon = "HIV-1"
readoutvalue = 1

[[record]]
molsmiles = "FC(F)(F)c1csc(NC(=S)NCCc2ccccc2)n1"
testedon = "HIV-1"
readoutvalue = 98

[[record]]
molsmiles = "Cc1nc(NC(=S)NCCc2ccccc2)sc1C"
testedon = "HIV-1"
readoutvalue = 1

[[record]]
molsmiles = "N#Cc1csc(NC(=S)NCCc2ccccc2)n1"
testedon = "HIV-1"
readoutvalue = 99

[[record]]
molsmiles = "Fc1ccc2nc(NC(=S)NCCc3ccccc3)sc2c1"
testedon = "HIV-1"
readoutvalue = 1

